Test system: U2OS
Assay: Multiplex assay against U2OS
Format: toxicity, cell-based
Conditions: human, 12 h, 10 µM, compound concentration 10 uM, replicate 1
// values below are reported Population Mitochondria Different-Phenotype (%)
Answer format: value, then unit.

molecule	assayedTarget	assayValue
Cc1cc(=O)n(C)c2cc(N3C(=O)CC[C@H](NS(=O)(=O)CC(C)C)[C@H]3c3ccc(Cl)cc3)ccc12	U2OS	44%

Ask: Param item = Cc1nn(C)c2nc(NNC(=O)Nc3cc(Cl)nc(Cl)c3)cc(C(C)C)c12 ; retrieve measured Population Mitochondria Different-Phenotype (%).
Result: 46%

Ask: Param item = COCCCN1CCC(NC(=O)c2cc(Cl)c(N)c3c2OCC3)CC1 [PRUCALOPRIDE] ; retrieve measured Population Mitochondria Different-Phenotype (%).
Result: 0%

Ask: Param item = CN1CCC(C(=O)c2cccc(NC(=O)c3c(F)cc(F)cc3F)n2)CC1 ; retrieve measured Population Mitochondria Different-Phenotype (%).
Result: 13%

Ask: Param item = CCCCCCNC(=O)Nc1ccc(S(=O)(=O)Nc2ccc(CCNC[C@H](O)COc3ccc(O)cc3)cc2)cc1 [L-755507] ; retrieve measured Population Mitochondria Different-Phenotype (%).
Result: 11%

Ask: Param item = C[C@@H]1CC(=O)Nc2cccc(-c3ccc4c(c3)c(-c3cnn(C)c3)nn4C)c2N1 ; retrieve measured Population Mitochondria Different-Phenotype (%).
Result: 11%

Ask: Param item = CCn1c(-c2nc3cc(C(=O)N4CCCC(N)C4)ccc3n2C)cc2ccccc21.Cl (stereo not drawn) ; retrieve measured Population Mitochondria Different-Phenotype (%).
Result: 29%

Ask: Param item = O=C(NCCNCC(O)COc1ccc(O)cc1)N1CCOCC1.O=C(NCCNCC(O)COc1ccc(O)cc1)N1CCOCC1.O=C(O)/C=C/C(=O)O (stereo not drawn) [XAMOTEROL FUMARATE] ; retrieve measured Population Mitochondria Different-Phenotype (%).
Result: 2%

====

Test system: Fibroblast
Assay: Multiplex assay against human fibroblast
Assay type: toxicity, cell-based
Settings: 12 h, 10 µM, compound concentration 10 uM, replicate 1
hey, just use class 1 if measured Population Tubulin-Different-Phenotype (%) is less than 50%, otherwise class 0

molecule	labelValue
CCc1nn2c(C)cc(C)nc2c1Cc1ccc(-c2nnc(C3CCNCC3)o2)cc1	class 0
COc1c(Nc2ccc(S(C)(=O)=O)nc2C)ncnc1OC1CCN(C(=O)OC(C)C)CC1	class 0

Ask: # TODO verify Population Tubulin-Different-Phenotype (%) < 50% strictly for this molecule: Cc1ccc(OCC(O)C(C)NC(C)C)c2c1CCC2.Cl (stereo not drawn)
Result: class 0

Ask: # TODO verify Population Tubulin-Different-Phenotype (%) < 50% strictly for this molecule: COCCn1c(C)c(C)s/c1=N\C(=O)C1C(C)(C)C1(C)C
Result: class 0

Ask: # TODO verify Population Tubulin-Different-Phenotype (%) < 50% strictly for this molecule: N[C@](CC1c2ccccc2Oc2ccccc21)(C(=O)O)[C@H]1C[C@@H]1C(=O)O
Result: class 1

Ask: # TODO verify Population Tubulin-Different-Phenotype (%) < 50% strictly for this molecule: CN1CCN(c2ccc(Nc3c4ccccc4nc4ccccc34)cc2)CC1.Cl.Cl.O
Result: class 0

Ask: # TODO verify Population Tubulin-Different-Phenotype (%) < 50% strictly for this molecule: CN1C[C@H](C(=O)N[C@]2(C)O[C@@]3(O)[C@@H]4CCCN4C(=O)[C@H](Cc4ccccc4)N3C2=O)C[C@@H]2c3cccc4[nH]cc(c34)C[C@H]21.CS(=O)(=O)O [DIHYDROERGOTAMINE MESYLATE]
Result: class 1
